Test system: Plasmodium berghei
procedure-text: Luciferase/luciferin-expressing antifolate-resistant parasites were used to infect a culture of HepG2 cells that were pre-incubated with compounds. Infected hepatocytes emit light due to the luciferase reaction. Assay results are presented as the percent inhibition of light emission compared to control. […]
Assay type: functional
condition-context: sporozoite, HEPG2TOX_HILL_SLOPE 1.27, HEPG2TOX_R_SQUARED 0.954, PBLUC_HILL_SLOPE 1.14, PBLUC_R_SQUARED 0.72, read-out: LUCIFERASE INFECTION ASSAY - IC50
property-name: IC50 (nM)
Please reply with the bare figure in nM and do not write the unit itself.

IC50 for "NC(=O)c1ccsc1NC(=O)CSc1ncc(-c2ccccc2)n1-c1ccccc1" ?
447

====

Test system: Plasmodium berghei
procedure-text: Luciferase/luciferin-expressing antifolate-resistant parasites were used to infect a culture of HepG2 cells that were pre-incubated with compounds. Infected hepatocytes emit light due to the luciferase reaction. Assay results are presented as the percent inhibition of light emission compared to control. […]
Type: functional
condition-context: sporozoite, HEPG2TOX_HILL_SLOPE 0.38, HEPG2TOX_R_SQUARED 0.804, PBLUC_HILL_SLOPE 0.536, PBLUC_R_SQUARED 0.0495, read-out: LUCIFERASE INFECTION ASSAY - IC50
pIC50: −log10 of the molar value.
property-name: pIC50

pIC50 for "CC(=O)Nc1cccc(-c2cc(NC=O)c3ncc(-c4ccc(C(C)=O)cc4)n3c2)c1" ?
< 5.10

====

Test system: Plasmodium berghei
procedure-text: Luciferase/luciferin-expressing antifolate-resistant parasites were used to infect a culture of HepG2 cells that were pre-incubated with compounds. Infected hepatocytes emit light due to the luciferase reaction. Assay results are presented as the percent inhibition of light emission compared to control. […]
Assay type: functional
condition-context: sporozoite, HEPG2TOX_HILL_SLOPE 6.71, HEPG2TOX_R_SQUARED 0.423, PBLUC_HILL_SLOPE 12, PBLUC_R_SQUARED 0.638, read-out: LUCIFERASE INFECTION ASSAY - IC50
property-name: pIC50
Reminder that pIC50 is minus the log10 of a molar concentration.

pIC50 for CCCCNC(=O)c1c(NC(=O)C(C)Oc2ccccc2)nc2ccc(C)cn12 (stereo unspecified) ?
5.14

====

System: Plasmodium berghei
procedure-text: Luciferase/luciferin-expressing antifolate-resistant parasites were used to infect a culture of HepG2 cells that were pre-incubated with compounds. Infected hepatocytes emit light due to the luciferase reaction. Assay results are presented as the percent inhibition of light emission compared to control. […]
Format: functional
condition-context: sporozoite, HEPG2TOX_HILL_SLOPE 15.2, HEPG2TOX_R_SQUARED 0.451, read-out: LUCIFERASE INFECTION ASSAY - IC50
property-name: IC50

IC50 for CN(C(=O)COC(=O)c1nc(Cl)c(Cl)c(Cl)c1Cl)C1CCS(=O)(=O)C1 (stereo unspecified) ?
> 10 µM

====

Test system: Plasmodium berghei
procedure-text: Luciferase/luciferin-expressing antifolate-resistant parasites were used to infect a culture of HepG2 cells that were pre-incubated with compounds. Infected hepatocytes emit light due to the luciferase reaction. Assay results are presented as the percent inhibition of light emission compared to control. […]
Assay type: functional
condition-context: sporozoite, read-out: LUCIFERASE INFECTION ASSAY - IC90
IC90 values for the compounds below.

Sample records with IC90:
compound	target-entity	IC90
CN(C(=O)COc1cc2ccccc2cc1C(=O)NCc1ccccc1)C1CCCCC1	Plasmodium berghei	> 10 µM
CCCCCCCCCCCc1n[nH]c(=S)n1-c1ccccc1C(F)(F)F	Plasmodium berghei	> 8.26 µM
COc1cc(C2NCC(c3ccccc3Cl)c3c2[nH]c2ccccc32)ccc1OCc1cccc(C(F)(F)F)c1 (centres undefined)	Plasmodium berghei	> 10 µM
Cc1ccc(-c2cc(C(=O)NNC(=O)CC34CC5CC(CC(C5)C3)C4)c3ccccc3n2)cc1	Plasmodium berghei	> 10 µM
O=C(Nc1ccc(S(=O)(=O)NCCCN2CCOCC2)cc1)c1csc(-c2ccsc2)n1	Plasmodium berghei	> 10 µM
C=CCn1c(SCC(=O)c2cc(C)n(-c3cc(F)ccc3F)c2C)nc2scc(-c3ccccc3)c2c1=O	Plasmodium berghei	8.56 µM
CCOC(=O)c1c(CC(C)C)csc1NC(=O)CNc1ccc(-n2cnnn2)cc1	Plasmodium berghei	> 10 µM
O=C(CSc1nnc(-c2ccco2)n1-c1ccc(OCc2ccccc2)cc1)c1ccc(Cl)cc1	Plasmodium berghei	> 6.57 µM

Can you look up IC90 on Plasmodium berghei for "Cc1nn(Cc2ccccc2Cl)c(C)c1C(=O)Nc1nc(-c2ccccn2)cs1" ?
6.51 µM

====

System: Plasmodium berghei
procedure-text: Luciferase/luciferin-expressing antifolate-resistant parasites were used to infect a culture of HepG2 cells that were pre-incubated with compounds. Infected hepatocytes emit light due to the luciferase reaction. Assay results are presented as the percent inhibition of light emission compared to control. […]
Type: functional
condition-context: sporozoite, FFLUC_HILL_SLOPE 10.5, FFLUC_R_SQUARED 0.751, HEPG2TOX_HILL_SLOPE 1.41, HEPG2TOX_R_SQUARED 0.982, PBLUC_HILL_SLOPE 15, PBLUC_R_SQUARED 0.726, read-out: LUCIFERASE INFECTION ASSAY - IC50
property-name: pIC50
Reminder that pIC50 is minus the log10 of a molar concentration.

pIC50 for "CCCNC(=O)c1c(NC(=O)c2cc(F)ccc2F)nc2ccc(C)cn12" ?
5.99

====

Test system: Plasmodium berghei
procedure-text: Luciferase/luciferin-expressing antifolate-resistant parasites were used to infect a culture of HepG2 cells that were pre-incubated with compounds. Infected hepatocytes emit light due to the luciferase reaction. Assay results are presented as the percent inhibition of light emission compared to control. […]
Format: functional
condition-context: sporozoite, PBLUC_HILL_SLOPE 2.69, PBLUC_R_SQUARED 0.0924, read-out: LUCIFERASE INFECTION ASSAY - IC50
property-name: IC50 (µM)
Please reply with the bare figure in µM and do not write the unit itself.

Can you look up IC50 on Plasmodium berghei for "CCN(CC)CCn1c(NC(=O)c2cc(-c3cccs3)nn2-c2ccccc2)nc2ccccc21" ?
6.76

====

System: Plasmodium berghei
procedure-text: Luciferase/luciferin-expressing antifolate-resistant parasites were used to infect a culture of HepG2 cells that were pre-incubated with compounds. Infected hepatocytes emit light due to the luciferase reaction. Assay results are presented as the percent inhibition of light emission compared to control. […]
Type: functional
condition-context: sporozoite, PBLUC_HILL_SLOPE 6.98, PBLUC_R_SQUARED 0.0782, read-out: LUCIFERASE INFECTION ASSAY - IC50
property-name: pIC50
Reminder that pIC50 is minus the log10 of a molar concentration.

pIC50 for "CNc1nc2cnc(-c3cncc(OC)c3)cc2n1Cc1ccc(OC)c(OC)c1" ?
5.09

====

System: Plasmodium berghei
procedure-text: Luciferase/luciferin-expressing antifolate-resistant parasites were used to infect a culture of HepG2 cells that were pre-incubated with compounds. Infected hepatocytes emit light due to the luciferase reaction. Assay results are presented as the percent inhibition of light emission compared to control. […]
Format: functional
condition-context: sporozoite, HEPG2TOX_HILL_SLOPE 1.28, HEPG2TOX_R_SQUARED 0.968, PBLUC_HILL_SLOPE 1.65, PBLUC_R_SQUARED 0.898, read-out: LUCIFERASE INFECTION ASSAY - IC50
property-name: IC50
The answer consists of two parts: a number and, after it, its unit.

IC50 for "COc1ccc(/C(C#N)=C/c2ccccc2OC)cc1" ?
597 nM

====

System: Plasmodium berghei
procedure-text: Luciferase/luciferin-expressing antifolate-resistant parasites were used to infect a culture of HepG2 cells that were pre-incubated with compounds. Infected hepatocytes emit light due to the luciferase reaction. Assay results are presented as the percent inhibition of light emission compared to control. […]
Format: functional
condition-context: sporozoite, HEPG2TOX_HILL_SLOPE 1.64, HEPG2TOX_R_SQUARED 0.835, PBLUC_HILL_SLOPE 9.56, PBLUC_R_SQUARED 0.749, read-out: LUCIFERASE INFECTION ASSAY - IC50
property-name: IC50 (µM)
Please reply with the bare figure in µM and do not write the unit itself.

IC50 for "Clc1ccccc1-c1nc2ccnc(NCc3ccccc3)c2[nH]1" ?
3.21

====

System: Plasmodium berghei
procedure-text: Luciferase/luciferin-expressing antifolate-resistant parasites were used to infect a culture of HepG2 cells that were pre-incubated with compounds. Infected hepatocytes emit light due to the luciferase reaction. Assay results are presented as the percent inhibition of light emission compared to control. […]
Format: functional
condition-context: sporozoite, PBLUC_HILL_SLOPE 0.184, PBLUC_R_SQUARED 0.0602, read-out: LUCIFERASE INFECTION ASSAY - IC50
property-name: IC50

Can you look up IC50 on Plasmodium berghei for "O=C(Nc1ccc(Cl)cc1)OCc1nccn1Cc1ccc(Cl)cc1" ?
> 8.77 µM
